pKi: −log10 of the molar value.
Across several publications, the following pKi results were reported for 5-hydroxytryptamine receptor 1A (Rattus norvegicus).
property measured: pKi

>>> numeric_result("O=c1c2cnc3ccccc3c2ncn1CCCN1CCN(c2ccccc2F)CC1")
7.26
>>> numeric_result("COc1ccccc1N1CCN(CCCNS(=O)(=O)c2cccc3cccnc23)CC1")
7.43
>>> numeric_result("O=C(c1ccc(F)c(Cl)c1)N1CCC(F)(CNCc2ncc(Cl)cn2)CC1")
8.47

A = O=c1oc2cc(OCCCCN3CCN(c4cccc(Cl)c4Cl)CC3)ccc2c2c1CCC2
B = CCCCOc1ccccc1N1CCN(CCCN2C(=O)C3CCCN3C2=O)CC1 (stereo not given)
C = O=c1[nH]c2cc(-c3ccco3)[nH]c2c(=O)n1CCN1CCN(c2ccccc2Cl)CC1
D = O=c1ccc(-n2cnc3ccccc32)nn1CCCCCCN1CCN(c2ccccc2Cl)CC1
E = O=C1C2C3C=CC(C3)C2C(=O)N1CCCCN1CCN(c2ncccn2)CC1 (stereo not given)
Rank the items in ascending order with respect to pKi. Answer by listing the labels in the order asked for.
D, C, A, E, B
(D: 6.21, C: 6.66, A: 7.17, E: 7.38, B: 7.82)
